B1: Osa-1-4 twister ribozyme (parent)
chain: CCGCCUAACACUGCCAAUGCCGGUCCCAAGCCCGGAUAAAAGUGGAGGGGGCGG

# Variants of: B1
# Assay: self-cleavage, relative activity (ratio to wild type); higher = more cleavage; co-transcriptional
Quantity Name: self-cleavage
Please reply with the number alone, leaving off any unit.

// worked examples, self-cleavage included
Seq	Quantity Name	Recorded Number
CCGCCUUACACUGCCAAUGCCGGUCCCAAGCCCGGAAAAAAGUGGAGGGGGCGG [A7U U37A]	self-cleavage	0.07
CCGCCUAAGACUGCCAAUGCCGGUCCCAAGCUCGGAUAAAAGUGGAGGGGGCGG [C32U C9G]	self-cleavage	0.09
CCGCCUAACACUGCCAAUGCCGGUCCCAAGCCCGGAUAACAGUCGAGGGGGCGG [A40C G44C]	self-cleavage	0.09
CCGCCUAACACUGCCAAUGCCGAUCCCAGGCCCGGAUAAAAGUGGAGGGGGCGG [A29G G23A]	self-cleavage	0.07

Kindly consider the entry below.
I am curious: what self-cleavage value has been reported for CCGCCUAACUCUGCCAAUGCCGGUCCCAAGCCCGGAUAAAAGUGGAGGGGGGGG [A10U C52G] ?
0.07
